Each entry below carries its recorded herbicidal rating GLXMAW.
System: GLXMAW (Soybean, Williams)
Assay: Postemergence herbicidal evaluation
Assay type: in vivo, Glycine max, (L.) Merr. cv Williams
Details: postemergence, rate 0.0313 kg/ha

| Compound | herbicidal rating GLXMAW |
| --- | --- |
| CN1C(=O)C(CC(=O)NO)SC1=Nc1cc(-n2c(=O)cc(C(F)(F)F)n(C)c2=O)c(F)cc1Cl (stereo not shown) | 6.5 |
| C#CC(C)N1C(=O)CSC1=Nc1cc(-n2c(=O)cc(C(F)(F)F)n(C)c2=O)c(F)cc1Cl (stereo not shown) | 5.0 |
| Cn1c(C(F)(F)F)cc(=O)n(-c2cc(N=C3SCC(=O)N3Cc3ccc(S(N)(=O)=O)cc3)c(Cl)cc2F)c1=O | 5.0 |
| COc1cccc(CN2C(=O)CSC2=Nc2cc(-n3c(=O)cc(C(F)(F)F)n(C)c3=O)c(F)cc2Cl)c1 | 5.5 |
| Cn1c(C(F)(F)F)cc(=O)n(-c2cc(N=C3SCC(=O)N3Cc3ccco3)c(Cl)cc2F)c1=O | 6.5 |
| Cn1c(C(F)(F)F)cc(=O)n(-c2cc(N=C3SCC(=O)N3Cc3ccccc3Cl)c(Cl)cc2F)c1=O | 4.5 |
| CCOC(=O)CN1C(=O)CSC1=Nc1cc(N2C(=O)CC(C(F)(F)F)CC2=O)c(F)cc1Cl | 6.5 |
| Cn1c(C(F)(F)F)cc(=O)n(-c2cc(N=C3SCC(=O)N3Cc3ccc(Cl)cc3)c(Cl)cc2F)c1=O | 5.0 |
| COc1ccc(CN2C(=O)CSC2=Nc2cc(-n3c(=O)cc(C(F)(F)F)n(C)c3=O)c(F)cc2Cl)cc1OC | 4.0 |
| Cn1c(C(F)(F)F)cc(=O)n(-c2cc(N=C3SCC(=O)N3Cc3ccc(Br)cc3)c(Cl)cc2F)c1=O | 5.0 |

###

Test system: SETVI (Foxtail, Green)
Test: Postemergence herbicidal evaluation
Assay type: in vivo, Setaria viridis
Conditions: postemergence, rate 0.0313 kg/ha

| Compound | herbicidal rating SETVI |
| --- | --- |
| COCCN1C(=O)CSC1=Nc1cc(-n2c(=O)cc(C(F)(F)F)n(C)c2=O)c(F)cc1Cl | 0.0 |
| COc1ccc(CN2C(=O)CSC2=Nc2cc(-n3c(=O)cc(C(F)(F)F)n(C)c3=O)c(F)cc2Cl)c(OC)c1 | 2.0 |
| CN1C(=O)C(CC(=O)NO)SC1=Nc1cc(-n2c(=O)cc(C(F)(F)F)n(C)c2=O)c(F)cc1Cl (stereo not shown) | 3.0 |
| Cn1c(C(F)(F)F)cc(=O)n(-c2cc(N=C3SCC(=O)N3Cc3ccc(Br)cc3)c(Cl)cc2F)c1=O | 2.0 |
| C#CC(C)N1C(=O)CSC1=Nc1cc(-n2c(=O)cc(C(F)(F)F)n(C)c2=O)c(F)cc1Cl (stereo not shown) | 6.0 |
| Cn1c(C(F)(F)F)cc(=O)n(-c2cc(N=C3SCC(=O)N3C3CC3)c(Cl)cc2F)c1=O | 3.0 |
| CCOC(=O)CN1C(=O)C(C(=O)OCC)SC1=Nc1cc(-n2c(=O)cc(C(F)(F)F)n(C)c2=O)c(F)cc1Cl (stereo not shown) | 1.0 |

###

System: ABUTH (Velvetleaf)
Assay: Preemergence herbicidal evaluation
Format: in vivo, Abutilon theophrasti
Conditions: rate 0.0156 kg/ha; rated 4-5 weeks after treatment
Reported ABUTH preemergence herbicidal rating values follow for various compounds
Recorded Endpoint: ABUTH preemergence herbicidal rating

| Compound | Tested Target | Assay Value |
| --- | --- | --- |
| CCOC(=O)CN1C(=O)C(C)SC1=Nc1cc(-n2c(=O)cc(C(F)(F)F)n(C)c2=O)c(F)cc1Cl (stereo not shown) | ABUTH (Velvetleaf) | 7.5 |
| CC1SC(=Nc2cc(-n3c(=O)cc(C(F)(F)F)n(C)c3=O)c(F)cc2Cl)N(C)C1=O (stereo not shown) | ABUTH (Velvetleaf) | 9.0 |
| CCOC(=O)CN1C(=O)C(CC)SC1=Nc1cc(-n2c(=O)cc(C(F)(F)F)n(C)c2=O)c(F)cc1Cl (stereo not shown) | ABUTH (Velvetleaf) | 6.0 |
| COC(=O)CN1C(=O)CSC1=Nc1cc(-n2c(=O)cc(C(F)(F)F)n(C)c2=O)c(F)cc1Cl | ABUTH (Velvetleaf) | 0.0 |
